Measurement Description: method code SF, from DOI: 10.1080/00021369.1987.10868331
Property Measured: logP

Below are worked cases with known answers.
>>> readout_number("CCNc1nc(NC(C)C)nc(SC(F)F)n1")
3.7
>>> readout_number("CCCCNc1nc(NC(C)C)nc(SC(F)F)n1")
4.75
>>> readout_number("CCC(C)Nc1nc(NC(C)C)nc(SC(F)F)n1 (centres undefined)")
4.55

[1] CCCNc1nc(NC(C)C)nc(SC(F)F)n1
[2] CCNc1nc(N)nc(SC(F)F)n1
(Q) // returns 1 or 2 , whichever has the lower logP State the label of the item chosen.
(A) 2
(2: 2.29, 1: 4.23)

---

Measurement Description: method code SF, from DOI: 10.1080/00021369.1987.10868331
Property Measured: logP

>>> readout_number("CCNc1nc(NC)nc(SC(F)F)n1")
2.68

[P] CCCCCNc1nc(NC)nc(SC(F)F)n1
[Q] CCCCCCCCNc1nc(NCC)nc(SC(F)F)n1
(Q) Compare P and Q by numeric logP and name the larger one. Refer to your chosen entry by its label in the reply.
(A) Q
(Q: 6.61, P: 4.42)

---

Measurement Description: method code SF, from DOI: 10.1080/00021369.1987.10868331
Property Measured: logP

>>> readout_number("CCNc1nc(NC(C)(C)C)nc(SC(F)F)n1")
4.57

[A] CC(C)Nc1nc(NC(C)C)nc(SC(F)F)n1
[B] Nc1nc(N)nc(SC(F)F)n1
(Q) Could you tell me which of these two has the smaller logP figure? First: A Second: B Kindly give the label for the entry you pick.
(A) B
(B: 1.21, A: 4.25)

[1] CCCCCCNc1nc(NCC)nc(SC(F)F)n1
[2] CCCNc1nc(NCC)nc(SC(F)F)n1
(Q) Determine, for 1 and 2 , which has the greater value of logP. // caller expects the label of the chosen entry
(A) 1

---

Measurement Description: method code SF, from DOI: 10.1080/00021369.1987.10868331
Property Measured: logP

Example entries and their recorded answers appear below.
>>> readout_number("CNc1nc(N)nc(SC(F)F)n1")
1.75
>>> readout_number("CNc1nc(NC(C)(C)C)nc(SC(F)F)n1")
3.91
>>> readout_number("CCNc1nc(NC(C)CC)nc(SC(F)F)n1 (centres undefined)")
4.23

[1] CCCNc1nc(NC)nc(SC(F)F)n1
[2] CCCCCNc1nc(NCC)nc(SC(F)F)n1
(Q) Select the item whose logP value is smaller, choosing between 1 and 2 . Answer by stating the label of the chosen item.
(A) 1

---

Measurement Description: method code SF, from DOI: 10.1080/00021369.1987.10868331
Property Measured: logP

>>> readout_number("CCCCNc1nc(NC)nc(SC(F)F)n1")
3.7
>>> readout_number("CCCNc1nc(NCCC)nc(SC(F)F)n1")
4.45
>>> readout_number("CNc1nc(NC(C)C)nc(SC(F)F)n1")
3.27
>>> readout_number("CCCCNc1nc(NCC)nc(SC(F)F)n1")
4.51
